EXPERIMENTAL_SYSTEM: full-length FLAG-tagged B-Raf(V600E) (Homo sapiens (Human), UniProt P15056, V600E)
Sequence (P15056 whole entry V600E): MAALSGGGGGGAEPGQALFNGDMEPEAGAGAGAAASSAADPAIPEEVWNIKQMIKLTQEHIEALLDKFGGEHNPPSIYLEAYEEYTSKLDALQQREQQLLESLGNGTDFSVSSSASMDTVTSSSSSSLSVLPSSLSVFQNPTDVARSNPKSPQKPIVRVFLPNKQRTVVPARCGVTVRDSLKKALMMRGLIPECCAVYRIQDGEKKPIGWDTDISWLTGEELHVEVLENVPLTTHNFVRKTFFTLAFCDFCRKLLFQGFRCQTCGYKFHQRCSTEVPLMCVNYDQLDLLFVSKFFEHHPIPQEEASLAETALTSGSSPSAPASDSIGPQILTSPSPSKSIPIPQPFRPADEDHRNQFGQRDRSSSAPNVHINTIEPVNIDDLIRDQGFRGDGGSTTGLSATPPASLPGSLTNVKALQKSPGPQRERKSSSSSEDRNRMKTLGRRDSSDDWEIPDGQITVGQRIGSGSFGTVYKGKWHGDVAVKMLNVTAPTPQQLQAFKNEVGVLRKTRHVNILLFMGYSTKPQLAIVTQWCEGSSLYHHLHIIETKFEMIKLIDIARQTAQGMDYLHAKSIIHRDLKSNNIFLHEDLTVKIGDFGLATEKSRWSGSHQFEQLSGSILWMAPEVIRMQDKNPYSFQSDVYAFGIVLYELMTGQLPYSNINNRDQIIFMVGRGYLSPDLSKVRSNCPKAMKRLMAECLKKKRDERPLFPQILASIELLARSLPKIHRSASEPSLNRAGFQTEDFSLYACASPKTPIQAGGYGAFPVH
METHOD: BRAF V600E enzyme assay (TR-FRET competitive displacement)
Assay type: binding
CONDITION_PARAMETERS: averaged IC50; TR-FRET tracer displacement, 60 min
Counter-ions that a name gives are not always drawn.
ENDPOINT_NAME: IC50 (nM)

{"COMPOUND": "Cn1cnc2ccc(Nc3c(F)ccc(NS(=O)(=O)N4CCC(F)(F)C4)c3Cl)c(F)c2c1=O", "EXPERIMENTAL_SYSTEM": "full-length FLAG-tagged B-Raf(V600E) (Homo sapiens (Human), UniProt P15056, V600E)", "QUANTITATIVE_READOUT": 3}

a: COCC1CN(S(=O)(=O)Nc2ccc(F)c(Oc3ccc4ncn(C)c(=O)c4c3Cl)c2Cl)C1
b: COCC1CN(S(=O)(=O)Nc2ccc(F)c(Nc3ccc4ncn(C)c(=O)c4c3Cl)c2Cl)C1 [Example 132, trifluoroacetate]
c: Cc1c(Nc2c(F)ccc(NS(=O)(=O)N3CCCCC3)c2Cl)ccc2ncn(C)c(=O)c12
Input: I would appreciate it if you could sort these 3 compounds by IC50, starting from the smallest number. Give the labels in the order specified.
Output: a, b, c
(a: 4 nM, b: 13 nM, c: 53 nM)

* * *

METHOD: PK (free brain-to-free plasma ratio) (mouse)
Assay type: in vivo
CONDITION_PARAMETERS: male CD-1 mice, oral gavage 10 mg/kg, unbound brain-to-unbound plasma, read-out: B/P ratio (free)
Counter-ions that a name gives are not always drawn.
ENDPOINT_NAME: Kp

For orientation, consider the following solved cases.
{"COMPOUND": "Cn1cnc2ccc(Oc3c(F)ccc(NS(=O)(=O)N4CCCC4)c3Cl)c(F)c2c1=O [Example 44, trifluoroacetate]", "ENDPOINT_NAME": "Kp", "RESULT": "0.35 to 0.47"}
{"COMPOUND": "COC1CN(S(=O)(=O)Nc2ccc(F)c(Nc3ccc4ncn(C)c(=O)c4c3Cl)c2Cl)C1", "ENDPOINT_NAME": "Kp", "RESULT": "0.18 to 0.22"}
{"COMPOUND": "Cn1cnc2ccc(Nc3c(F)c(F)cc(NS(=O)(=O)N4CCCC4)c3Cl)c(F)c2c1=O [Example 40, trifluoroacetate]", "ENDPOINT_NAME": "Kp", "RESULT": "0.55 to 0.72"}

Input: What does the data say about its Kp? Entry: Cn1cnc2ccc(Nc3c(F)ccc(NS(=O)(=O)N4CCCC4)c3Cl)c(Cl)c2c1=O [Example 12, trifluoroacetate]
Output: 0.34 to 0.39

Input: Please look up its Kp: `CO[C@@H]1CCN(S(=O)(=O)Nc2ccc(F)c(Oc3ccc4ncn(C)c(=O)c4c3Cl)c2Cl)C1`
Output: 0.66 to 0.73

Input: Would you kindly share the measured Kp for Cn1cnc2ccc(Nc3c(F)ccc(NS(=O)(=O)N4CC5CC5C4)c3Cl)c(F)c2c1=O (stereo not drawn) [Example 30, trifluoroacetate] ?
Output: 0.51 to 0.64

Input: Consider the compound shown here: `Cn1cnc2ccc(Nc3c(F)ccc(NS(=O)(=O)N4CC[C@@H](F)C4)c3Cl)c(Cl)c2c1=O` What is its recorded Kp?
Output: 0.61 to 0.83

Input: Would you mind telling me what Kp value was observed for CO[C@@H]1CCN(S(=O)(=O)Nc2ccc(F)c(Oc3ccc4ncn(C)c(=O)c4c3F)c2Cl)C1 [Example 48, trifluoroacetate] ?
Output: 0.29 to 0.33

Input: Quick one: Kp for `COCC1CN(S(=O)(=O)Nc2ccc(F)c(Nc3ccc4ncn(C)c(=O)c4c3C)c2Cl)C1` ?
Output: 0.3 to 0.5

* * *

METHOD: MDR1 LLC-PK1 and BCRP MDCKII permeability assay: permeability coefficient (Papp)
Format: in vitro ADME
ENDPOINT_NAME: Papp at 2 h, 1 µM (×10⁻⁶ cm/s)

{"COMPOUND": "CO[C@@H]1CCN(S(=O)(=O)Nc2cc(F)c(F)c(Nc3ccc4ncn(C)c(=O)c4c3C)c2Cl)C1 [Example 99]", "ENDPOINT_NAME": "Papp at 2 h, 1 µM", "UNIT_DESCRIPTOR": "×10⁻⁶ cm/s", "QUANTITATIVE_READOUT": 34}

a: Cn1cnc2ccc(Oc3c(F)ccc(NS(=O)(=O)N4CC[C@@H](F)C4)c3Cl)c(F)c2c1=O [Example 20]
b: Cc1c(Nc2cc(Cl)cc(NS(=O)(=O)N3CCCC3)c2F)ccc2ncn(C)c(=O)c12 [Example 104]
Input: # query: argmin of Papp at 2 h, 1 µM over a and b Please respond with the label that marks your chosen entry.
Output: b
(b: 22 ×10⁻⁶ cm/s, a: 37 ×10⁻⁶ cm/s)

* * *

EXPERIMENTAL_SYSTEM: full-length FLAG-tagged B-Raf(V600E) (Homo sapiens (Human), UniProt P15056, V600E)
METHOD: BRAF V600E enzyme assay (TR-FRET competitive displacement)
Assay type: binding
CONDITION_PARAMETERS: averaged IC50; TR-FRET tracer displacement, 60 min
Structures can show the parent of a compound that is named as a salt.
ENDPOINT_NAME: IC50 (nM)

{"COMPOUND": "CCN(C)S(=O)(=O)Nc1cc(F)c(F)c(Nc2ccc3ncn(C)c(=O)c3c2F)c1Cl", "EXPERIMENTAL_SYSTEM": "full-length FLAG-tagged B-Raf(V600E) (Homo sapiens (Human), UniProt P15056, V600E)", "ENDPOINT_NAME": "IC50", "QUANTITATIVE_READOUT": 4}
{"COMPOUND": "Cc1c(Nc2cc(Cl)cc(NS(=O)(=O)N3CC[C@@H](F)C3)c2F)ccc2ncn(C)c(=O)c12", "EXPERIMENTAL_SYSTEM": "full-length FLAG-tagged B-Raf(V600E) (Homo sapiens (Human), UniProt P15056, V600E)", "ENDPOINT_NAME": "IC50", "QUANTITATIVE_READOUT": 5}
{"COMPOUND": "CO[C@@H]1CN(S(=O)(=O)Nc2ccc(F)c(Nc3ccc4ncn(C)c(=O)c4c3Cl)c2Cl)C[C@@H]1F (relative stereo)", "EXPERIMENTAL_SYSTEM": "full-length FLAG-tagged B-Raf(V600E) (Homo sapiens (Human), UniProt P15056, V600E)", "ENDPOINT_NAME": "IC50", "QUANTITATIVE_READOUT": 4}
{"COMPOUND": "Cn1cnc2ccc(Nc3c(F)ccc(NS(=O)(=O)N4CC[C@H](F)C4)c3Cl)c(F)c2c1=O [Example 27, trifluoroacetate]", "EXPERIMENTAL_SYSTEM": "full-length FLAG-tagged B-Raf(V600E) (Homo sapiens (Human), UniProt P15056, V600E)", "ENDPOINT_NAME": "IC50", "QUANTITATIVE_READOUT": 5}

A: Cc1c(Oc2c(F)ccc(NS(=O)(=O)N3CC(F)C3)c2Cl)ccc2ncn(C)c(=O)c12
B: COC1CN(S(=O)(=O)Nc2ccc(F)c(Oc3ccc4ncn(C)c(=O)c4c3Cl)c2Cl)C1
Input: Which of the two gives a bigger number for IC50: A or B ? Could you answer with the label of the item you picked?
Output: B
(B: 6 nM, A: 4 nM)

* * *

EXPERIMENTAL_SYSTEM: P-gp (MDR1) (Homo sapiens (Human))
METHOD: MDR1 LLC-PK1 permeability assay: efflux ratio
Assay type: in vitro ADME
CONDITION_PARAMETERS: pig
Structures can show the parent of a compound that is named as a salt.
ENDPOINT_NAME: efflux ratio at 2 h, 1 µM

{"COMPOUND": "CO[C@@H]1CCN(S(=O)(=O)Nc2ccc(F)c(Oc3ccc4ncn(C)c(=O)c4c3F)c2Cl)C1 [Example 48, trifluoroacetate]", "QUANTITATIVE_READOUT": 2.2}
{"COMPOUND": "Cn1cnc2ccc(Oc3c(F)ccc(NS(=O)(=O)N4CC[C@@H](OC(F)F)C4)c3Cl)c(F)c2c1=O", "QUANTITATIVE_READOUT": 2.2}

1: Cc1c(Nc2c(F)ccc(NS(=O)(=O)N3CC4C(F)C4C3)c2Cl)ccc2ncn(C)c(=O)c12 (stereo not shown)
2: Cc1c(Nc2c(F)ccc(NS(=O)(=O)N3CCCC3)c2F)ccc2ncn(C)c(=O)c12 [Example 113, trifluoroacetate]
Input: Would you mind telling me which has the lower recorded efflux ratio at 2 h, 1 µM between 1 and 2 ? Give the label of your selection.
Output: 2
(2: 1.3, 1: 2.4)

* * *

EXPERIMENTAL_SYSTEM: P-gp (MDR1) (Homo sapiens (Human), UniProt P08183)
Sequence (P08183 whole entry, species assumed): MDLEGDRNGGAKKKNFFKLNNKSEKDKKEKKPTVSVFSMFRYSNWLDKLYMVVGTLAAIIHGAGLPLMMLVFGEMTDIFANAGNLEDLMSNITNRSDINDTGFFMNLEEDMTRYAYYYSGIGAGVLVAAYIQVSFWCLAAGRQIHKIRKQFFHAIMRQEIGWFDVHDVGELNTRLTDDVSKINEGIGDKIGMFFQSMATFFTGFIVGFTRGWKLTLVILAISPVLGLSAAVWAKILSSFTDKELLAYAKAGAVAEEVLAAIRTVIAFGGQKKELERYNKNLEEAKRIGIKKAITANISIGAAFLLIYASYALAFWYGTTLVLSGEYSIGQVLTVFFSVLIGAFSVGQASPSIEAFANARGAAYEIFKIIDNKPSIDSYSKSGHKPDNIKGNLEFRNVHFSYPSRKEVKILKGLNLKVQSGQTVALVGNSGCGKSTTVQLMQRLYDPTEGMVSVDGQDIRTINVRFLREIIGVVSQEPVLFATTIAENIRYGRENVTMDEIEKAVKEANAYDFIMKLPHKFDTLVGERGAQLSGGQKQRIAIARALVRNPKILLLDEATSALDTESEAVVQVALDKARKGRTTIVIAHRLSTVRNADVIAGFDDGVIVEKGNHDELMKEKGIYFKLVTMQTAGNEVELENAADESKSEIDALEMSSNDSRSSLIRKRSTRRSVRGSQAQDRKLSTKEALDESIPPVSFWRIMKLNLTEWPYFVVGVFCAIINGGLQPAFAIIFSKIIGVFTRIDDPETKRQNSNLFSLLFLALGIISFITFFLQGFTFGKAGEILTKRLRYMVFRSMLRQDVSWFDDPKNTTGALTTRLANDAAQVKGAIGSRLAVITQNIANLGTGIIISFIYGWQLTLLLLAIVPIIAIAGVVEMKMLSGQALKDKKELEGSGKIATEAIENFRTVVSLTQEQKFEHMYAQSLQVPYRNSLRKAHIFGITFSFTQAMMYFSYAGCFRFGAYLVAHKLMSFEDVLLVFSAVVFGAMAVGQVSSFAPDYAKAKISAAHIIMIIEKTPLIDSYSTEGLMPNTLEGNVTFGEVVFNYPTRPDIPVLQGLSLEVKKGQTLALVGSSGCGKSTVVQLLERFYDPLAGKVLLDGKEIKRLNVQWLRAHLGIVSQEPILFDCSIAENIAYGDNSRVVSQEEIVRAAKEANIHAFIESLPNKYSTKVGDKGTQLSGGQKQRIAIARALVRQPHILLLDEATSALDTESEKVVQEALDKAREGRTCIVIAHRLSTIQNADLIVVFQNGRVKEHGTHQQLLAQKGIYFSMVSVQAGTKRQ
METHOD: MDR1 LLC-PK1 permeability assay: efflux ratio
Type: in vitro ADME
CONDITION_PARAMETERS: pig
Structures can show the parent of a compound that is named as a salt.
ENDPOINT_NAME: efflux ratio at 2 h, 1 µM

Record excerpt, results attached:
{"MOLECULE": "O=c1c2c(F)c(Nc3c(F)ccc(NS(=O)(=O)N4CCCC4)c3Cl)ccc2ncn1CF [Example 42, trifluoroacetate]", "QUANTITATIVE_READOUT": 1.8}
{"MOLECULE": "CCOC1CN(S(=O)(=O)Nc2ccc(F)c(Nc3ccc4ncn(C)c(=O)c4c3Cl)c2Cl)C1", "QUANTITATIVE_READOUT": 1.7}
{"MOLECULE": "Cn1cnc2ccc(Nc3c(F)ccc(NS(=O)(=O)N4CCC(F)(F)C4)c3Cl)c(F)c2c1=O", "QUANTITATIVE_READOUT": 3}
{"MOLECULE": "Cn1cnc2ccc(Nc3c(F)ccc(NS(=O)(=O)N4CCC(F)(F)C4)c3Cl)c(Cl)c2c1=O [Example 25, trifluoroacetate]", "QUANTITATIVE_READOUT": 1.6}

A: Cc1c(Nc2c(F)ccc(NS(=O)(=O)N3CC[C@@H](F)C3)c2F)ccc2ncn(C)c(=O)c12 [Example 114, trifluoroacetate]
B: Cn1cnc2ccc(Oc3c(F)ccc(NS(=O)(=O)N4CC(F)C4)c3Cl)c(Cl)c2c1=O
Input: Which is greater in efflux ratio at 2 h, 1 µM, the first item A or the second item B ? Output the label that corresponds to your choice.
Output: B
(B: 3.8, A: 2.2)

a: COC1CN(S(=O)(=O)Nc2ccc(F)c(Oc3ccc4ncn(C)c(=O)c4c3F)c2Cl)C1
b: Cc1c(Nc2cc(F)cc(NS(=O)(=O)N3CC[C@@H](F)C3)c2Cl)ccc2ncn(C)c(=O)c12
Input: Endpoint returns whichever of a and b has the numerically higher efflux ratio at 2 h, 1 µM. Please reply using the label of the selected record.
Output: a

a: Cn1cnc2ccc(Nc3c(F)ccc(NS(=O)(=O)N4CC[C@H](F)C4)c3Cl)c(F)c2c1=O [Example 27, trifluoroacetate]
b: CO[C@@H]1CCN(S(=O)(=O)Nc2cc(F)c(F)c(Nc3ccc4ncn(C)c(=O)c4c3C)c2Cl)C1
c: CCN(C)S(=O)(=O)Nc1cc(F)c(F)c(Nc2ccc3ncn(C)c(=O)c3c2C)c1Cl
Input: Arrange by efflux ratio at 2 h, 1 µM, high to low. Your task in answering is to list the labels in the requested order.
Output: a, b, c
(a: 2.7, b: 1.7, c: 0.9)

P: CO[C@@H]1CCN(S(=O)(=O)Nc2ccc(F)c(Oc3ccc4ncn(C)c(=O)c4c3Cl)c2Cl)C1
Q: CO[C@H]1CN(S(=O)(=O)Nc2ccc(F)c(Nc3ccc4ncn(C)c(=O)c4c3C)c2Cl)C[C@@H]1F (relative stereo)
Input: Field: entry with larger efflux ratio at 2 h, 1 µM (options P / Q ). Answer by stating the label of the chosen item.
Output: P
(P: 2.4, Q: 1.5)

a: Cn1cnc2ccc(Nc3c(F)ccc(NS(=O)(=O)N4CC[C@@H](OC(F)F)C4)c3Cl)c(F)c2c1=O
b: Cn1cnc2ccc(Nc3c(F)ccc(NS(=O)(=O)N4CCCC4)c3Cl)c(Cl)c2c1=O [Example 12, trifluoroacetate]
Input: Consider a and b . Which of these has its efflux ratio at 2 h, 1 µM at a higher number? Lab note: record the label of whichever item you select.
Output: a

A: Cn1cnc2ccc(Nc3c(F)ccc(NS(=O)(=O)N4CC[C@@H](F)C4)c3Cl)c(Br)c2c1=O [Example 24, trifluoroacetate]
B: Cc1c(Nc2c(F)ccc(NS(=O)(=O)N3CC4CC4(C)C3)c2Cl)ccc2ncn(C)c(=O)c12 (stereo not drawn)
Input: // compare measured efflux ratio at 2 h, 1 µM between A and B ; output the lower one API: response body contains the label of the selected item.
Output: B

1: Cn1cnc2ccc(Nc3c(F)ccc(NS(=O)(=O)N4CC(COC(F)F)C4)c3Cl)c(Cl)c2c1=O [Example 138, trifluoroacetate]
2: Cc1c(Nc2c(F)ccc(NS(=O)(=O)N3CC[C@H](F)C3)c2Cl)ccc2ncn(C)c(=O)c12 [Example 86, trifluoroacetate]
3: CCOC1CN(S(=O)(=O)Nc2ccc(F)c(Nc3ccc4ncn(C)c(=O)c4c3C)c2Cl)C1
Input: Please put the entries in order of rising efflux ratio at 2 h, 1 µM. The response must list the labels following the requested ordering.
Output: 3, 2, 1

Sourced from patent US12303509B2
